assay: Human HepG2 cell viability assay in 384 well format; format: toxicity, cell-based; design: dose 125 nL, time 70.5 hour; concentration not given beside the values; settings: HepG2 cells, read-out: Inhibition
MEASUREMENT_NAME: cytotoxicity at 70.5 h
A complete answer gives the number followed by the unit.

Would you please look over these solved cases?
[[record]]
compound = "Cc1cc(C[C@@H]2COC[C@@H]2NC(=O)CN2CCc3ccccc3C2)on1"
result = "8.76%"

[[record]]
compound = "COc1ccncc1NC(=O)c1[nH]nc(C(C)C)c1Br"
result = "-3.93%"

[[record]]
compound = "Cc1nc(CN2CCCN(C(=O)C(C)OCC3CC3)CC2)cs1 (configuration not stated)"
result = "-8.36%"

[[record]]
compound = "O=C(CCNCc1cccc(O)c1)N1CCc2sccc2C1"
result = "-7.91%"

[[record]]
compound = "CCn1cc(NC(=O)NCC2(N3CCOCC3)CCSC2)cn1 (configuration not stated)"
result = "-1.94%"


# lookup: cytotoxicity at 70.5 h of O=C(C[C@@H]1COC[C@H]2CN(CC3CC3)C[C@@H]12)N1CCCCO1
5.39%

Need cytotoxicity at 70.5 h of O=C(COCc1nc(-c2ccncc2)no1)NC1CCCCC1 , thanks.
-2.53%

Endpoint output: cytotoxicity at 70.5 h of Cc1ccc(OCC(C)NS(=O)(=O)Cc2ccon2)cc1 (configuration not stated) . Value?
-9.91%

Suppose we examine the compound Clc1cccc(OCCCN2CCOC(Cn3cncn3)C2)c1 (configuration not stated) ; what cytotoxicity at 70.5 h value has been reported?
1.4%

Return reported cytotoxicity at 70.5 h; argument: c1cc(CN2CCCC23CCCN(Cc2ccoc2)C3)ccn1 (configuration not stated)
-3.1%

I would be grateful if you could share the reported cytotoxicity at 70.5 h for CCOCC1CC2(CCN(C(=O)c3ccc4ccccc4n3)CC2)CO1 (configuration not stated) .
-13.3%

Returns the measured cytotoxicity at 70.5 h for the input compound. Input: CNc1cc(C)nc(N2C[C@H](C3CC3)[C@@H](N)C2)n1
6.57%

###

assay: Human HepG2 cell viability assay in 384 well format; assay type: toxicity, cell-based; design: dose 125 nL, time 70.5 hour; concentration not given beside the values; conditions: HepG2 cells, read-out: Inhibition
Entries and their measured cytotoxicity at 70.5 h follow.
# number only, unit % dropped from output

Sample answers from the record:
[[record]]
compound = "CCS(=O)(=O)N1CCc2ccc(=O)n(CC3CC3)c2CC1"
measurement_name = "cytotoxicity at 70.5 h"
result = -9.39

[[record]]
compound = "c1cnnc(N2CCCC2CNCc2nc(-c3cccs3)no2)c1 (stereo not drawn)"
measurement_name = "cytotoxicity at 70.5 h"
result = -15.1

[[record]]
compound = "CNC(=O)CN1CCCC12CCN(C(=O)c1ccsc1)CC2"
measurement_name = "cytotoxicity at 70.5 h"
result = -6.13

[[record]]
compound = "CCN(CC)S(=O)(=O)N1CCCC1C(=O)N1CCSCC1 (stereo not drawn)"
measurement_name = "cytotoxicity at 70.5 h"
result = -2.8


Which cytotoxicity at 70.5 h is listed for O=C(NC1CC1)C1CCN(c2cccc(C(F)(F)F)n2)CC1 ?
-1.37

Fill in: cytotoxicity at 70.5 h of Cc1cccc(OCCSCCn2nc3ccccn3c2=O)c1 is ___
-11

Looking for the measured cytotoxicity at 70.5 h of CCN(C)c1ccc(CNS(=O)(=O)C2CCOCC2)cc1F , can you help?
-10.6
